- TESTED_ON: human adenosine A2B receptor (Homo sapiens (Human), UniProt P29275)
- Sequence (P29275 whole entry): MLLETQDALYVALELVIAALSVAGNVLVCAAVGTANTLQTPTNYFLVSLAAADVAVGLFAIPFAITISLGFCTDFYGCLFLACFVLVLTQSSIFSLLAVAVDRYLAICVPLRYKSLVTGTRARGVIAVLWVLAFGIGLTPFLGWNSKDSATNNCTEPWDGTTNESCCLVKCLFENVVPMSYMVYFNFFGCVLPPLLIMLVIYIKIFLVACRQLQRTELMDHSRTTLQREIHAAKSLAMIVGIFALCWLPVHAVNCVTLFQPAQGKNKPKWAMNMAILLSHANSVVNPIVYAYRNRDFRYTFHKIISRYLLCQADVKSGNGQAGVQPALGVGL
- ASSAY_COMMENT: Adenosine A2B Receptor Cyclic AMP GS Assay
- Assay type: cell-based
- MEASUREMENT_SETUP: A2B_cAMP_EC50 (nM), HEK-293 cells expressing human A2B, agonist NECA 12 nM

{"columns": ["MOLECULE", "EC50"],
 "data": [
  ["Cc1ncoc1-c1c(-c2cccc(C#N)c2)nc(N)c2nc(C(N)c3ccccc3F)nn12 (stereo not drawn) [Example 80]", "< 10 nM"],
  ["N#Cc1cccc(-c2nc(N)c3ncnn3c2-c2ccc3nccn3c2)c1 [Example 124]", "< 10 nM"],
  ["CN1CCC2(CN(Cc3cccc(F)c3Cc3nc4c(N)nc(-c5cccc(C#N)c5)c(-c5ccncn5)n4n3)C2)C1=O [Example 66]", "< 10 nM"],
  ["N#Cc1cccc(-c2nc(N)c3nc(Cc4cccc5ccnn45)nn3c2-c2ccncn2)c1 [Example 46]", "< 10 nM"],
  ["N#Cc1cccc(-c2nc(N)c3nc(Cc4c(F)cccc4CNCC(N)=O)nn3c2-c2ccncn2)c1 [Example 69]", "< 10 nM"],
  ["N#Cc1cccc(-c2nc(N)c3nc(C(O)c4c(F)cccc4F)nn3c2-c2ccc3nncn3c2)c1 (racemic) [Example 104]", "10 to 100 nM"],
  ["N#Cc1cccc(-c2nc(N)c3cc(C(=O)N4CC(O)C4)nn3c2-c2ccncn2)c1 [Example 12]", "10 to 100 nM"],
  ["C[C@@]1(C(=O)O)CCN(Cc2cccc(F)c2Cc2nc3c(N)nc(-c4cccc(C#N)c4)c(-c4ccncn4)n3n2)C1 [Example 65]", "10 to 100 nM"],
  ["N#Cc1cccc(-c2nc(N)c3nc(Cc4ccccc4CN4CC[C@H](O)C4)nn3c2-c2ccncn2)c1 [Example 123]", "10 to 100 nM"],
  ["N#Cc1cccc(-c2nc(N)c3nc(C(O)c4c(F)cccc4OC(F)F)nn3c2-c2ccncn2)c1 (single isomer, unassigned) [Example 97]", "< 10 nM"],
  ["CN1CCC(NCc2cccc(F)c2Cc2nc3c(N)nc(-c4cccc(C#N)c4)c(-c4ccncn4)n3n2)C1=O (stereo not drawn) [Example 72]", "< 10 nM"],
  ["N#Cc1cccc(-c2nc(N)c3cc(C4=CCOCC4)nn3c2-c2ccncn2)c1 [Example 24]", "10 to 100 nM"],
  ["N#Cc1cccc(-c2nc(N)c3cc(Cc4ccccc4F)nn3c2C2=CCN(C(N)=O)CC2)c1 [Example 19]", "10 to 100 nM"],
  ["N#Cc1cccc(-c2nc(N)c3cc(C(=O)N4CCC4)nn3c2-c2ccncn2)c1 [Example 7]", "< 10 nM"],
  ["Cc1nc(C(O)C(F)F)c(-c2c(-c3cccc(C#N)c3)nc(N)c3cc(Cc4ccccn4)nn23)o1 (stereo not drawn) [Example 35]", "< 10 nM"]
]}
